experiment: Relative recalcitrancy classification of organic contaminants (FIG. 1); assay type: physicochemical
result-type: relative recalcitrancy

> print(dat)
                                   molecule        recorded.result
1                      c1cc2c3c(cccc3c1)CC2           recalcitrant
2    Clc1ccc(C(c2ccc(Cl)cc2)C(Cl)(Cl)Cl)cc1  strongly recalcitrant
3                            c1ccc2ccccc2c1           recalcitrant
4  CCOC(=O)CC(SP(=S)(OC)OC)C(=O)OCC (stereo not drawn)           recalcitrant
5  ClC1=C(Cl)C2(Cl)C3C(Cl)C(Cl)CC3C1(Cl)C2(Cl)Cl (stereo not drawn)  strongly recalcitrant

Note to self: relative recalcitrancy recorded for c1ccc2c(c1)ccc1c3ccccc3ccc21 was recalcitrant

Lab note: ClC1=C(Cl)C2(Cl)C3C4C=CC(C4)C3C1(Cl)C2(Cl)Cl (stereo not drawn) gave relative recalcitrancy of strongly recalcitrant
